biological target: E3 ubiquitin-protein ligase XIAP (Homo sapiens) (UniProt P98170); assay: small molecules binding XIAP protein – biophysical, small-molecule microarray, fluorescence 635 nm, primary screen (AID 1181); conditions: higher = more signal;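 also: score merges 667 nm emission and signal to noise over triplicate slides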
Sequence (P98170 whole entry, looked up): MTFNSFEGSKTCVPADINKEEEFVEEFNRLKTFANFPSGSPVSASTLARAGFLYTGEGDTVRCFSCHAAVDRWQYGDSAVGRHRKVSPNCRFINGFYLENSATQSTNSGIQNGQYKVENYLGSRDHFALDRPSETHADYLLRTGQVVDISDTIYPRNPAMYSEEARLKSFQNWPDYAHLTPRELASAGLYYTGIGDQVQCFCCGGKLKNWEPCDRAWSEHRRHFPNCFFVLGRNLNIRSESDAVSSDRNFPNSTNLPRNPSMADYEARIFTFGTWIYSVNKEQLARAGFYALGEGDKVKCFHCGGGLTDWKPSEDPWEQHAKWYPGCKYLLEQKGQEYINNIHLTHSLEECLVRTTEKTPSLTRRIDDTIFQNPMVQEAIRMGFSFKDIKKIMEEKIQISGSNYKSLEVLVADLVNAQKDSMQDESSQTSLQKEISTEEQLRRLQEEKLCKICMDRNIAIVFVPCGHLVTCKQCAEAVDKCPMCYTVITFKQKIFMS
reported.property: composite z-score
Kindly provide the number alone.

Please review the entries below; each comes with its answer.
CC(C)N1CC=CC23O[C@@H]4C=CCOC(=O)[C@@H]4[C@H]2C(=O)N(CCCCCCO)[C@@H]3C1=O (stereo partly specified) ... 0.0342
CC(C)NC(=O)[C@@]1(Cc2ccccc2I)c2ccccc2C(=O)N(Cc2ccccc2C(F)(F)F)[C@H]1c1ccc(CO)cc1 ... -0.206
COC(=O)[C@@]1(Cc2ccc(F)cc2)[C@H]2c3cc(C(=O)N(C)C)n(Cc4ccc(C)c(F)c4F)c3C[C@H]2CN1C(=O)c1ccccc1 ... -0.102
O=C1OCCC=C[C@H]2OC34C=CCN(Cn5nnc6ccccc65)C(=O)[C@H]3N(CCCCCO)C(=O)[C@@H]4C12 (stereo partly specified) ... -0.0943
COCCOC(=O)N1C(=O)[C@@]2(c3cc(C#CCNC(N)=O)ccc31)[C@H](c1ccc(OCCO)cc1)N1[C@H](c3ccccc3)[C@H](c3ccccc3)OC(=O)[C@H]1[C@@H]2C(=O)N1CCN(c2ncccn2)CC1 ... 0.1

# evaluate next
compound COCCOC(=O)N1C(=O)[C@@]2(c3ccccc31)[C@H](c1ccccc1OCCO)N1[C@H](c3ccccc3)[C@H](c3ccccc3)OC(=O)[C@H]1[C@@H]2C(=O)N1CCc2cc(OC)c(OC)cc2C1 , composite z-score observed: -0.146

* * *

Reported composite z-score by item:
target: Carbonic anhydrase 2 (Homo sapiens) (UniProt P00918); test: compounds binding carbonic anhydrase 2 – biochemical, small-molecule microarray, Alexa647-labelled CAII, profiling panel (AID 1122); conditions: CAII-A647 binding fluorescence, higher = more signal
Kindly provide the number alone.

Please review the entries below; each comes with its answer.
COCCOC(=O)N1C(=O)[C@@]2(c3cc(C#Cc4ccc(OC)cc4)ccc31)[C@H](C(N)=O)[C@H]1C(=O)O[C@H](c3ccccc3)[C@H](c3ccccc3)N1[C@@H]2c1ccc(OCCO)cc1 ... 0.332
C=CCOC(=O)[C@@H]1[C@H]2C(=O)O[C@H](c3ccccc3)[C@H](c3ccccc3)N2[C@H](c2ccc(OCCOC(=O)[C@@H]3C[C@@H]4C(=O)N5CCC[C@H]5C(=O)N4[C@@H]3c3cccc(OCCO)c3)cc2)[C@@]12C(=O)Nc1ccc(I)cc12 ... 0.0553
CO[C@H]1O[C@H](CO)[C@@H](OC(=O)Nc2cccc(F)c2)[C@H](OC(=O)Nc2ccc3c(c2)OCO3)[C@H]1OC(=O)Nc1ccc2c(c1)OCO2 ... 0.728
NC(=O)NCC#Cc1ccc2c(c1)[C@]1(C(=O)N2)[C@H](c2ccc(O)cc2)N2[C@H](c3ccccc3)[C@H](c3ccccc3)OC(=O)[C@H]2[C@@H]1C(N)=O ... 0.263
COCCCNC(=O)[C@@]1(C)c2ccccc2C(=O)N(c2ccc(C)cn2)[C@H]1c1ccc(CO)cc1 ... 0.789
CCOC(=O)C1=CC[C@@H](c2ccccc2)N(S(=O)(=O)c2ccc(C)cc2)[C@H]1C=C(C)C ... 0.491
COCCOC(=O)N1C(=O)[C@@]2(c3cc(C#CCC(C(=O)OC)C(=O)OC)ccc31)[C@H](C(=O)N1CCCCCCC1)[C@H]1C(=O)O[C@H](c3ccccc3)[C@H](c3ccccc3)N1[C@@H]2c1ccc(O)cc1 ... 0.387
O=[N+]([O-])c1ccc(C[n+]2ccc(-c3ccc(CO)cc3)cc2)o1 ... 0.885

compound COc1ccc([Si](C)(C)[C@H]2[C@H](CC(=O)N3CCC[C@H]3CO)O[C@@]3(C(=O)N(Cc4ccc(N5C(=O)c6cccc7cccc5c67)cc4)c4ccccc43)[C@@H]2C)cc1 , composite z-score observed: 0.409

* * *

experiment: basal CRE-LacZ reporter activity in PC12 – cell-based, unstimulated, primary screen (AID 1145); settings: no forskolin, luminescence, 4.5 h, higher = more signal, called active from +8 up or from −8 down
Would you please tag the item Fulfilled when its z-score is -0.2 or above, and Not fulfilled when it is below?

Some solved cases for reference:
CN(C)C(=O)[C@@]1(Cc2ccccc2N=[N+]=[N-])N=C(c2ccc(OCCCO)cc2)O[C@H]1c1ccccc1N=[N+]=[N-] ... Fulfilled
CCCCC(=C=CC[C@H](O)c1ccccc1OCCO)C[C@H](O)c1ccccn1 ... Fulfilled
COc1cc(NN2C(C(O)c3ccc(I)cc3)C=CC3C(=O)N(C)C(=O)C32)cc(OC)c1OC (stereo not drawn) ... Not fulfilled
Cc1ccc(S[C@]2(C(=O)NCc3ccccc3)CC(=O)N(C3Cc4ccccc4C3)[C@@H]2c2ccc(CO)cc2I)cc1 ... Fulfilled

Determine whether measured z-score meets or exceeds -0.2 for C=C(COC)C(=O)CC[C@H](OC(=O)c1ccccc1-c1ccccc1C(=O)O)c1ccc(CO)o1 Fulfilled

Determine whether measured z-score meets or exceeds -0.2 for O=C1NC(=O)C2C1C=CC(C(O)c1ccc3c(c1)OCO3)N2Nc1ccc(Cl)cc1Cl (stereo not drawn) Fulfilled

Determine whether measured z-score meets or exceeds -0.2 for CC(C)[Si](C#C[Si](C(C)C)(C(C)C)C(C)C)(O[C@H](C)c1cn(Cc2cccc(Cl)c2)nn1)C(C)C Not fulfilled

Determine whether measured z-score meets or exceeds -0.2 for COC(=O)[C@@]1(Cc2ccccc2)[C@H]2c3cc(C(=O)N4CCCC4)n(CCO)c3C[C@H]2CN1C(=O)c1ccccc1 Fulfilled

* * *

molecular target: Follistatin-related protein 3 (Homo sapiens) (UniProt O95633); assay: compounds binding follistatin-related protein 3 – biochemical, small-molecule microarray, 635 nm fluorescence, primary screen (AID 1105); conditions: FSTL3 binding, higher = more signal;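 also: score merges emission near 667 nm and signal to noise per printed spot across three slides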
Sequence (O95633 whole entry, looked up): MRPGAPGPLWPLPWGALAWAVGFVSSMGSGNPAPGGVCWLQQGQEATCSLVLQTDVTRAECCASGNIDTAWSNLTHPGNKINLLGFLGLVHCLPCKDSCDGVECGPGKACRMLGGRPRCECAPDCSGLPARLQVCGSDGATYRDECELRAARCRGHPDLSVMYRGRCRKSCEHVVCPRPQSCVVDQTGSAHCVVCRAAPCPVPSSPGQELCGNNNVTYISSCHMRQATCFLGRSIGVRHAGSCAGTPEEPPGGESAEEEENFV
Entries are sorted into classes by composite z-score as follows: LOW (below 0.3), MEDIUM (0.3 to below 1), HIGH (1 or more)

O=C1O[C@H](c2ccccc2)[C@H](c2ccccc2)N2[C@H]1[C@@H](C(=O)N1CCCCCCC1)[C@]1(C(=O)Nc3ccc(C#CCCO)cc31)[C@H]2c1ccc(OCCO)cc1 ... HIGH

# bin lookup: classify COc1ccc([Si](C)(C)[C@@H]2[C@@H](CCO)O[C@]3(C(=O)N(Cc4ccc(N5C(=O)c6ccccc6Oc6ccccc65)cc4)c4ccccc43)[C@H]2C)cc1 by its composite z-score LOW

# bin lookup: classify COc1ccc([Si](C)(C)[C@@H]2[C@@H](CCO)O[C@]3(C(=O)N(Cc4ccccc4)c4ccc(N5CCCCC5=O)cc43)[C@H]2C)cc1 by its composite z-score MEDIUM

# bin lookup: classify C=CCC(OC(C)=O)[C@@H]1[C@@H](N(Cc2ccc(-c3ccccc3)cc2)C(=O)Cc2ccc(OC)cc2)c2cc(OCCCO)ccc2N1C(=O)c1ccc(-c2ccccc2)cc1 (stereo partly drawn) by its composite z-score LOW

* * *

biological target: Follistatin-related protein 3 (Homo sapiens); assay: compounds binding follistatin-related protein 3 – biochemical, small-molecule microarray, 635 nm fluorescence, primary screen (AID 1105); details: FSTL3 binding, higher = more signal;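 also: score merges emission near 667 nm and signal to noise per printed spot across three slides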
reported.property: composite z-score
Kindly provide the number alone.

COc1ccccc1CN1C(=O)c2ccccc2[C@@]2(Cc3ccccc3N(C3CC3)C2=O)[C@@H]1c1ccc(CO)cc1 ... -0.279
O=C1c2ccccc2C(=O)C2CC([C@H]3Oc4ccccc4S(=O)(=O)N4CCC[C@@H]34)=CCC12 (some centres not stated) ... -0.26
COCCOC(=O)N1C(=O)[C@@]2(c3ccccc31)[C@H](c1ccc(OCCO)cc1)N1[C@H](c3ccccc3)[C@H](c3ccccc3)OC(=O)[C@H]1[C@@H]2C(=O)NC[C@H](O)c1ccccc1 ... 1.38
COCCOC(=O)N1C(=O)[C@@]2(c3cc(C#CCCO)ccc31)[C@H](C(=O)N1CCc3cc(OC)c(OC)cc3C1)[C@H]1C(=O)O[C@H](c3ccccc3)[C@H](c3ccccc3)N1[C@@H]2c1ccc(OCCO)cc1 ... 1.4
COc1ccccc1CN1C(=O)c2ccccc2[C@](Cc2ccccc2I)(C(=O)NCCN2CCOCC2)[C@@H]1c1ccc(CO)cc1 ... 1.46

compound COC(=O)C(CC#Cc1ccc2c(c1)[C@]1(C(=O)N2)[C@H](C(=O)N2CCc3cc(OC)c(OC)cc3C2)[C@H]2C(=O)O[C@H](c3ccccc3)[C@H](c3ccccc3)N2[C@@H]1c1ccc(OCCO)cc1)C(=O)OC , composite z-score observed: 0.94

compound CCCCC(CC)C(O)C1C=CC2C(=O)NC(=O)C2N1Nc1ccccn1 (configuration not stated) , composite z-score observed: 0.768

* * *

experiment: blood-stage malaria parasite viability loss – strain 3D7, DAPI fluorescence, 100 nL, primary screen (AID 1184);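 also: parasites grown inside human red blood cells in medium with human serum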; details: P. falciparum 3D7 growth, 3 d, higher = more signal
Reported z-score by item:
Kindly provide the number alone.

CC(C)[Si](C#C[Si](C(C)C)(C(C)C)C(C)C)(O[C@H](C)c1cn(Cc2cccc(Cl)c2)nn1)C(C)C ... 0.293
C=CCC(OC(C)=O)[C@@H]1[C@@H](N(Cc2ccc(-c3ccccc3)cc2)C(=O)Cc2ccc(OC)cc2)c2cc(OCCCO)ccc2N1C(=O)c1ccc(-c2ccccc2)cc1 (stereo partly drawn) ... -2.91
CCCCC(CC)C(O)C1C=CC2C(=O)NC(=O)C2N1Nc1ccccn1 (stereo not drawn) ... 0.133
CN(C)CCCC[C@@H]1NC(=O)[C@H]2C[C@@H](C(=O)NCCCCCCNC(=O)CS)[C@@H](c3ccc(O)cc3)N2C1=O ... 0.323
CN(C)C(=O)[C@@]1(Cc2ccccc2N=[N+]=[N-])N=C(c2ccc(OCCCO)cc2)O[C@H]1c1ccccc1N=[N+]=[N-] ... -2.32
Cc1ccccc1C(O)C1C=CC2C(=O)N(Cc3ccccc3)C(=O)C2N1n1cnnc1 (stereo not drawn) ... -0.318
COCCOC(=O)N1C(=O)[C@@]2(c3cc(C#Cc4ccc(OC)cc4)ccc31)[C@H](C(=O)N1CCc3cc(OC)c(OC)cc3C1)[C@H]1C(=O)O[C@H](c3ccccc3)[C@H](c3ccccc3)N1[C@@H]2c1ccc(O)cc1 ... -1.65

# evaluate next
compound COc1ccc(C(=O)Nc2ccc3c(c2)[C@]2(O[C@@H](CCO)[C@H]([Si](C)(C)c4ccc(OC)cc4)[C@H]2C)C(=O)N3Cc2ccccc2)cc1 , z-score observed: -2.88
